- System: UO-31 renal
- test protocol: NCI-60 one-dose screen, 48 h (100 = growth as untreated, 0 = no growth, -100 = all killed)
- assay context: 10 µM unless noted
This is part of a sample that, as a whole, favours compounds with a hit. Of some 83,000 tested, about 20% had one in any assay.
measured attribute: growth (%)

molecule="Cc1ccc(C2CC(c3ccc(Nc4nc(NCCO)nc(NCCO)n4)cc3)=NN2c2ccc(Cl)cc2)cc1 (centres undefined)" target_or_system="UO-31 renal" measured_attribute=growth result_value=62.3
molecule=COC(=O)/C=C1\SC(=Nc2ccc(F)cc2)N(CCc2c[nH]c3ccccc23)C1=O target_or_system="UO-31 renal" measured_attribute=growth result_value=81
molecule=C=C1C(=O)O[C@H]2[C@H]1CC/C(COC(=O)N1CCC[C@H]1C(=O)Nc1ccc(OC)c(C(N)=O)c1O)=C\CC[C@@]1(C)O[C@@H]21 target_or_system="UO-31 renal" measured_attribute=growth result_value=41.2
molecule=COc1cc2c(Nc3ccc(NC(=O)Nc4ccc(Cl)c(C(F)(F)F)c4)c(Cl)c3)ncnc2cc1OCCCN1CCN(C)CC1 target_or_system="UO-31 renal" measured_attribute=growth result_value=54.9
molecule="Cc1nc2sc(C(=O)Nc3cccc(Cl)c3C)c(N)c2cc1C(C)O (centres undefined)" target_or_system="UO-31 renal" measured_attribute=growth result_value=48.7
molecule=Cc1nnc(/N=C2\NC(=O)/C(=C/c3ccc(N(C)C)cc3)S2)s1 target_or_system="UO-31 renal" measured_attribute=growth result_value=70.6
molecule=COc1ccc2nc(-c3ccc(OC)c(OC)c3)cc(-c3nnc(SCC(=O)Nc4ccc(C(C)=O)cc4)o3)c2c1 target_or_system="UO-31 renal" measured_attribute=growth result_value=91.7
molecule=CC(C)(C)c1nc2c(s1)c1nc(N)ncc1c1ccc(NS(=O)(=O)c3c(F)cccc3F)c(F)c12 target_or_system="UO-31 renal" measured_attribute=growth result_value=28.9
molecule=COC(=O)c1cncc(C(=O)Nc2ccc(-n3cnc4ccccc43)cc2)c1 target_or_system="UO-31 renal" measured_attribute=growth result_value=93.8

====

The following compounds are shown together with reported growth values.
- Tested on: HCT-116 colon
- test protocol: NCI-60 one-dose screen, 48 h (100 = growth as untreated, 0 = no growth, -100 = all killed)
- assay context: 10 µM unless noted
About 83,000 compounds went through this panel and 20% of them were active in at least one assay; those are over-represented in the sample as a whole.
measured attribute: growth (%)

compound="N#Cc1nc(-c2ccccc2)oc1S(=O)(=O)NCC(c1ccc(Cl)cc1)N1CCCCC1 (configuration not stated)" uom=% result_value=27.3
compound="O=c1c2ccccc2n(CC(O)CN2CCCC2)c2c(Br)cccc12 (configuration not stated)" uom=% result_value=90.4
compound="Cc1nc2sc(C(=O)Nc3ccccc3)c(N)c2cc1C(C)O (configuration not stated)" uom=% result_value=30.2
compound=COc1ccccc1Nc1nnc(-c2ccc(Cl)cc2)o1 uom=% result_value=34.1
compound=CC(=O)OC[C@]12CC[C@@H](c3cn(Cc4ccc(Cn5cc([C@@H]6CC[C@]7(COC(C)=O)CC[C@]8(C)[C@H](CC[C@@H]9[C@@]%10(C)CC[C@H](OC(C)=O)C(C)(C)[C@@H]%10CC[C@]98C)[C@@H]67)nn5)cc4)nn3)[C@@H]1[C@H]1CC[C@@H]3[C@@]4(C)CC[C@H](OC(C)=O)C(C)(C)[C@@H]4CC[C@@]3(C)[C@]1(C)CC2 uom=% result_value=109
compound=COc1ccc(/C=C/C(=O)Nc2ncnc3nc[nH]c23)cc1 uom=% result_value=101
compound=CCOCc1nc2ccccc2c(=O)[nH]1 uom=% result_value=98
compound=COc1ccc(-n2cc(COc3ccc4c5ccnc(C)c5n(CC(C)C)c4c3)nn2)cc1 uom=% result_value=50.5
compound=COc1cccc(NC(=O)Nc2ccc(Oc3ncnc4[nH]c(C)c(C)c34)cc2)c1 uom=% result_value=81.6
compound=CCCCc1ccc(N=Nc2ccc(OCC[N+](C)(C)C)cc2)cc1 uom=% result_value=48.7
compound=COC(=O)[C@]1(C)CCC[C@]2(C)[C@H]3C[C@H]4C(C(C)C)=C[C@]3(CC[C@H]21)[C@@H]1C(=O)N(CCC#N)C(=O)[C@@H]14 uom=% result_value=70.8
compound=COC(=O)/C=C/c1cc(OC)c2c(c1)[C@@H](C(=O)OC)[C@H](c1ccc(OC)c(OC)c1)O2 uom=% result_value=15.9
